Biological target: Mitogen-activated protein kinase 11 (Homo sapiens) (UniProt Q15759)
Sequence (Q15759 whole entry): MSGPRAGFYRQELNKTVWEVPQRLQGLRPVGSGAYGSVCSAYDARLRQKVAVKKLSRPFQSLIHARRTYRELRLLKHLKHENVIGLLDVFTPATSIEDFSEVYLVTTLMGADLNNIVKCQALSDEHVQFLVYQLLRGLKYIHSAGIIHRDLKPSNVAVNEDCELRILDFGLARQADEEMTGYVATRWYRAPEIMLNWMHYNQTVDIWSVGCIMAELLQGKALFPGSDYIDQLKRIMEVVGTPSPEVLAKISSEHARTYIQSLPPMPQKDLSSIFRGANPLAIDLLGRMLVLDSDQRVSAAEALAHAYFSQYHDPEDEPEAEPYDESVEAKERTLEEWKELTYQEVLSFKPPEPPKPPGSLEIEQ
Conditions: at 1 µM
readout_type: residual activity (%)
The reply should contain only the number, in %.

Reported residual activity of Cn1sc(=O)n(Cc2ccccc2)c1=O : 89

Reported residual activity of CC(C)[C@H](CO)Nc1nc(Nc2cc(N)cc(Cl)c2)c2ncn(C(C)C)c2n1 : 119

Reported residual activity of O=C(c1ccccc1)c1ccc(N2CCOCC2)cc1O : 96

Reported residual activity of COc1cc2c(cc1OC)-c1n[nH]c(Nc3cccc(F)c3)c1C2 : 60

Reported residual activity of Nc1nc(Nc2ccc(S(N)(=O)=O)cc2)nn1C(=O)c1c(F)cccc1F : 102

Reported residual activity of CC(C)(C)c1nc2c3ccc(F)cc3c3c(=O)[nH]ccc3c2[nH]1 : 62

Reported residual activity of CN([C@@H](Cc1ccc(OS(=O)(=O)c2cccc3cnccc23)cc1)C(=O)N1CCN(c2ccccc2)CC1)S(=O)(=O)c1cccc2cnccc12 : 113

Reported residual activity of O=C(CCCc1ccc(-c2ccccc2F)cc1)Nc1ccc(O)cc1 : 105

Reported residual activity of O=C1Nc2ccccc2/C1=C\c1c(Cl)[nH]c2ccccc12 : 99

Reported residual activity of O=c1cc(N2CCOCC2)oc2c1ccc1ccccc12 : 93

Reported residual activity of CSc1nc(-c2ccc(F)cc2)c(-c2ccnc(NC(C)c3ccccc3)c2)[nH]1 (stereo not drawn) : 10

Reported residual activity of CC(C)(C)n1nc(Cc2cccc3ccccc23)c2c(N)ncnc21 : 64

Reported residual activity of O=C1Cc2c([nH]c3ccc(Br)cc23)-c2ccccc2N1 : 98

Reported residual activity of Nc1ncnc2c1cnn2-c1ccccc1 : 97

Reported residual activity of CCOC(=O)c1c(C)[nH]c(/C=C2\C(=O)Nc3ccccc32)c1C : 98

Reported residual activity of NC(=O)c1ccc(-c2nc(-c3ccc4c(c3)OCCO4)c(-c3ccccn3)[nH]2)cc1 : 93

Reported residual activity of O=c1c(-c2ccc(F)cc2)c(-c2ccncc2)[nH]n1-c1ccc(Cl)cc1 : 23

Reported residual activity of Nc1ncnc2c1c(-c1ccc(Oc3ccccc3)cc1)cn2C1CCCC1 : 87

Reported residual activity of CCCC(=O)Oc1ccc2[nH]c(C(=O)c3cc4ccccc4[nH]3)cc2c1 : 104

Reported residual activity of O=C1Cc2c([nH]c3ccc([N+](=O)[O-])cc23)-c2ccccc2N1 : 100

Reported residual activity of COc1ccc(-c2cnc3c(-c4ccsc4)cnn3c2)cc1 : 94

Reported residual activity of O=C1Nc2ccc(Cl)cc2/C1=C/c1cc(Cl)c(O)c(Cl)c1 : 88

Reported residual activity of COc1cc2nccc(Oc3ccc(NC(=S)NC(=O)c4ccccc4C)cc3)c2cc1OC : 83
